All figures here come from ChEMBL document CHEMBL1149710.

System: Hepatitis B virus
Experiment: Antiviral activity against HBV transfected Hep G2.2.15 cells assessed as inhibition of e antigen HBsAg secretion
Assay type: functional, organism-based
Settings: HepG2 2.2.15
pIC50: −log10 of the molar value.
pIC50 overview

Consider the following illustrative entries.
# COMPOUND, pIC50
records = [
    ("COc1cc2c3c(c1O)C1(C=CC(=O)C=C1)CC3N(C)CC2 (stereo unspecified) [GLAZIOVINE]", 2.43),
    ("COC1=CC(=O)[C@@]2([C@@H]1O)[C@@H](Cl)C[C@@]13C(OC)=C(OC)C(=O)C[C@@]21CCN3C [ACUTUMINE]", "< 2.53"),
]

Exam item: Looking for the measured pIC50 of COc1ccc2c3c1-c1c(ccc(O)c1O)C[C@@H]3[N+](C)(C)CC2 [HYPSERPANINE B] , can you help?
Marked response: < 2.44

Exam item: I'd like to know its pIC50. The compound in question is COC1=CC(=O)[C@]2([C@@H](Cl)C[C@@]34C(OC)=C(OC)C(=O)C[C@@]23CCN4C)[C@H]1O [DAURICUMINE]
Marked response: < 2.48

Exam item: Name the recorded pIC50 for COc1ccc2c(c1O)-c1c(O)c(OC)cc3c1[C@H](C2)[N+](C)(C)CC3 [MAGNOFLORINE] .
Marked response: < 2.39

Exam item: Would you mind telling me what pIC50 value was observed for COc1ccc(C[C@H]2c3cc(O)c(OC)cc3CCN2C)cc1O [(S)-RETICULINE] ?
Marked response: < 2.52

----------
System: Hepatitis B virus
Test: Antiviral activity against HBV transfected Hep G2.2.15 cells assessed as inhibition of e antigen HBsAg secretion
Format: functional, organism-based
Conditions: HepG2 2.2.15
Catalogue of IC50 values

# count of solved cases: 3
# SMILES STR, IC50
records = [
    ("COc1cc2c(cc1O)C[C@H]1c3c(cc(OC)c(O)c3-2)CC[N+]1(C)C", "> 3.68 mM"),
    ("CCN(CC)C1=CC(=O)[C@]2([C@@H](Cl)C[C@@]34C(OC)=C(OC)C(=O)C[C@@]23CCN4C)[C@H]1O", "> 2.87 mM"),
    ("Nc1ccn([C@@H]2CS[C@H](CO)O2)c(=O)n1", "25.9 mM"),
]

Exam item: Looking for the measured IC50 of COc1cc2c3c(c1OC)C1(C=CC(=O)C=C1)C[C@H]3N(C)CC2 , can you help?
Marked response: > 4.18 mM

----------
Assay: Selectivity index, ratio of CC50 for human Hep G2.2.15 cells to IC50 for surface antigen HBsAg secretion in HBV transfected Hep G2.2.15 cells
Assay type: functional
Decision: Ratio CC50/IC50 beneath 2 gives True; Ratio CC50/IC50 meeting or exceeding 2 gives False.

Observe how each entry below is paired with its result.
# COMPOUND, ASSIGNED CLASS
records = [
    ("COc1cc2c3c(c1OC)C1(C=CC(=O)C=C1)C[C@H]3N(C)CC2", "True"),
    ("COc1ccc(C[C@H]2c3cc(O)c(OC)cc3CCN2C)cc1O [(S)-RETICULINE]", "True"),
    ("CCN(CC)C1=CC(=O)[C@]2([C@@H](Cl)C[C@@]34C(OC)=C(OC)C(=O)C[C@@]23CCN4C)[C@H]1O", "True"),
    ("COc1c(O)cc2c(c1OC)C=[N+](C)CC2", "True"),
]

Exam item: Please determine if Nc1ccn([C@@H]2CS[C@H](CO)O2)c(=O)n1 is below 2 in terms of Ratio CC50/IC50.
Marked response: False

Exam item: Consider the compound COc1cc2c3c(c1O)C1(C=CC(=O)C=C1)CC3N(C)CC2 (centres undefined) . Is its Ratio CC50/IC50 strictly less than 2?
Marked response: True

Exam item: # check: Ratio CC50/IC50 < 2 for COC1=CC(=O)[C@]2([C@@H](Cl)C[C@@]34C(OC)=C(OC)C(=O)C[C@@]23CCN4C)[C@H]1O
Marked response: True

Exam item: Dear colleague, could you confirm whether Ratio CC50/IC50 of COC1=CC(=O)[C@]2([C@@H](Cl)C[C@]34NCC[C@]23CC(=O)C(OC)=C4OC)[C@H]1O falls below 2? Thanks.
Marked response: False

----------
Assay: Cytotoxicity against human Hep G2.2.15 cells
Type: functional
Conditions: HepG2 2.2.15
Lab note: anything with CC50 below 2000 µM is marked 1; values at 2000 µM or higher are marked -1.

Exam item: Given COc1cc2c3c(c1OC)C1(C=CC(=O)C=C1)C[C@H]3N(C)CC2 [PRONUCIFERINE] , is recorded CC50 strictly lower than 2000 µM?
Marked response: 1

----------
Catalogue of compounds with associated pIC50
System: Hepatitis B virus
Assay: Antiviral activity against HBV transfected Hep G2.2.15 cells assessed as inhibition of e antigen HBsAg secretion
Type: functional, organism-based
Conditions: HepG2 2.2.15
pIC50: −log10 of the molar value.

# COMPOUND, SYSTEM, RECORDED METRIC, MEASUREMENT
records = [
    ("COC1=CC(=O)[C@@]2([C@@H]1O)[C@@H](Cl)C[C@]13NCC[C@]21CC(=O)C(OC)=C3OC [ACUTUMIDINE]", "Hepatitis B virus", "pIC50", "< 2.54"),
]

Exam item: I am curious: what pIC50 value has been reported for COc1c(O)cc2c(c1OC)C=[N+](C)CC2 [PHENOLBETAIN] ?
Marked response: < 2.34

Exam item: Please report the recorded pIC50 for COC1=CC(=O)[C@]2(CC[C@@]34C(OC)=C(OC)C(=O)C[C@]32CCN4C)[C@@H]1O [DECHLOROACUTUMINE] .
Marked response: < 2.53

Exam item: Entry under review: COC1=CC(=O)[C@]2([C@@H](Cl)C[C@]34NCC[C@]23CC(=O)C(OC)=C4OC)[C@H]1O [DAURICUMIDINE] . Reported pIC50?
Marked response: < 2.41

----------
Experiment: Cytotoxicity against human Hep G2.2.15 cells
Format: functional
Settings: HepG2 2.2.15
RECORDED METRIC: log10(CC50) (log10 of the value in µM)
Each number you see is log10 of CC50, and the unit inside the log is µM.

Worked cases, answers included:
# COMPOUND, log10(CC50)
rows = [
    ("CCN(CC)C1=CC(=O)[C@]2([C@@H](Cl)C[C@@]34C(OC)=C(OC)C(=O)C[C@@]23CCN4C)[C@H]1O", 3.35),
    ("COc1c(O)cc2c(c1OC)C=[N+](C)CC2", 3.34),
]

Exam item: Query (compound): COC1=CC(=O)[C@]2([C@@H](Cl)C[C@@]34C(OC)=C(OC)C(=O)C[C@@]23CCN4C)[C@H]1O ; field requested: log10(CC50)
Marked response: 3.34

Exam item: // returns reported log10(CC50) for input COc1ccc(C[C@H]2c3cc(O)c(OC)cc3CCN2C)cc1O [(S)-RETICULINE]
Marked response: 3.28

----------
Assay: Cytotoxicity against human Hep G2.2.15 cells
Assay type: functional
Settings: HepG2 2.2.15
RECORDED METRIC: CC50 (µM)
Express it in µM; write the number only.

Exam item: For Nc1ccn([C@@H]2CS[C@H](CO)O2)c(=O)n1 [LAMIVUDINE] , what is its reported CC50?
Marked response: 30000

Exam item: Fill blank: measured CC50 of the compound COc1cc2c3c(c1O)C1(C=CC(=O)C=C1)CC3N(C)CC2 (centres undefined) [GLAZIOVINE] is ____.
Marked response: 7

Exam item: GET /values?readout=CC50&item= COC1=CC(=O)[C@]2([C@@H](Cl)C[C@]34NCC[C@]23CC(=O)C(OC)=C4OC)[C@H]1O [DAURICUMIDINE]
Marked response: 1860

Exam item: Which CC50 value is on record for COC1=CC(=O)[C@]2(CC[C@@]34C(OC)=C(OC)C(=O)C[C@]32CCN4C)[C@@H]1O [DECHLOROACUTUMINE] ?
Marked response: 2930

----------
Experiment: Cytotoxicity against human Hep G2.2.15 cells
Type: functional
Settings: HepG2 2.2.15
RECORDED METRIC: CC50

Past entries and their recorded results:
# MOLECULE, CC50
measured = [
    ("COc1cc2c(cc1O)C[C@H]1c3c(cc(OC)c(O)c3-2)CC[N+]1(C)C [LAURIFOLINE]", "> 3.68 mM"),
    ("COC1=CC(=O)[C@@]2([C@@H]1O)[C@@H](Cl)C[C@@]13C(OC)=C(OC)C(=O)C[C@@]21CCN3C [ACUTUMINE]", "> 2.99 mM"),
    ("COC1=CC(=O)[C@@]2([C@@H]1O)[C@@H](Cl)C[C@]13NCC[C@]21CC(=O)C(OC)=C3OC [ACUTUMIDINE]", "> 2.89 mM"),
    ("COc1ccc2c(c1O)-c1c(O)c(OC)cc3c1[C@H](C2)[N+](C)(C)CC3 [MAGNOFLORINE]", "> 4.11 mM"),
]

# context switch: different molecule, same CC50
Exam item: Field request: CC50 | item: COc1ccc2c3c1-c1c(ccc(O)c1O)C[C@@H]3[N+](C)(C)CC2 [HYPSERPANINE B]
Marked response: > 3.61 mM
